Tested on: Enterococcus faecalis
Assay: In vitro minimum inhibitory concentration against Streptococcus faecalis ATCC 7080
Type: functional
Experimental endpoint: MIC (mg/L)
Give bare numbers, in mg/L.

Mol	MIC, mg/L
CNCCCN(C)C(=O)[C@H]1NC(=O)[C@H]2NC(=O)[C@H](NC(=O)[C@@H]3NC(=O)[C@H]4NC(=O)[C@@H](Cc5ccc(c(Cl)c5)Oc5cc3cc(c5O)Oc3ccc(cc3Cl)[C@H]2O)NC(=O)[C@H](N)c2ccc(O)c(c2)Oc2cc(O)cc4c2)c2ccc(O)c(c2)-c2c(O)cc(O)cc21	0.12

For the molecule "CCN(CC)CCCNC(=O)[C@H]1NC(=O)[C@H]2NC(=O)[C@H](NC(=O)[C@@H]3NC(=O)[C@H]4NC(=O)[C@@H](Cc5ccc(c(Cl)c5)Oc5cc3cc(c5O)Oc3ccc(cc3Cl)[C@H]2O)NC(=O)[C@H](N)c2ccc(O)c(c2)Oc2cc(O)cc4c2)c2ccc(O)c(c2)-c2c(O)cc(O)cc21" , what MIC is on record?
0.12
